// data source = PubChem BioAssay AID435005

Measurement Description: inhibitors of cytokine-induced beta cell apoptosis, primary screen, luminescence (AID 435005);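 note: 0% = cytokine-treated negative control wells and 100% = positive control rescue; higher means more ATP so stronger rescue from cytokine killing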
Condition Description: INS-1E cytokine-induced death, ATP luminescence, 48 h; hits give high values; percent of positive-control rescue, neutral wells zero; concentration not given here
The campaign covered roughly 300,000 compounds. About 2,400 (0.8%) were called active. Only a selection was taken, and actives are over-represented in it overall.
Catalogue of compounds with associated protection from apoptosis
Provide only the numeric value, understood in %.

# count of solved cases: 8
CC(C)CC(=O)N1CCN(Cc2cccc(Cl)c2)CC1 = 3.65
COC(=O)C1=C(C)N(Cc2ccccc2)C(=NCCCOC(C)C)N[C@H]1c1ccccc1 = 11.4
O=C(OCCN1C(=O)c2ccccc2C1=O)[C@@H]1CC(O)CN1S(=O)(=O)c1ccccc1[N+](=O)[O-] (some centres not stated) = 4.37
Oc1ccccc1CN1CCN(C(c2ccccc2)c2ccccc2)CC1 = 0.217
CCCCCCSc1ccc(-c2nc3ccc(Cl)cn3c2NCc2ccccc2)cc1 = -14.3
O=C1COc2ccc(C(=O)COC(=O)c3ccccc3Cl)cc2N1 = -5.54
CCN1CCN(C(c2cccnc2)c2cc(Cl)c3cccnc3c2O)CC1 (configuration not stated) = 92.4
COc1ccc(C2CC(c3ccc(C)cc3)Nc3nc(N)nn32)cc1 (configuration not stated) = -2.94

QUERY: Need protection from apoptosis, item COc1ccc(C2CC(c3ccc(Cl)cc3Cl)Nc3nc(N)nn32)cc1OC (configuration not stated)
RESULT: -0.0368

QUERY: Now consider CCN(CC)C(=O)[C@H]1CC(CC(=O)NCc2ccco2)C(=O)N2CCc3c([nH]c4ccccc34)[C@]12C (some centres not stated) .
RESULT: -1.53

QUERY: Now consider COc1ccc(CNC(=O)COC(=O)C(CCSC)N2C(=O)c3ccccc3C2=O)cc1 (configuration not stated) .
RESULT: -1.57

QUERY: Now consider `COc1ccc(-c2c(C#Cc3ccsc3)c3cc(-c4ccc(CN5CCOCC5)cc4)ccc3n2C)cc1` .
RESULT: -5.34
